// values below are reported IC50 at 48 h
experiment: Cytotoxicity against human 184A1 cells after 48 hrs by sulforhodamine B assay
Assay type: toxicity, cell-based
Units required after the number.

smiles_string=COc1cnc(NS(=O)(=O)c2ccc(N/C=C\C(=O)c3cc4ccccc4oc3=O)cc2)nc1 recorded_endpoint="IC50 at 48 h" recorded_measurement="172 µM"

Proceeding to the next compound to report its IC50 at 48 h.
# IC50 at 48 h (compound: `O=C(/C=C\Nc1ccc(S(=O)(=O)Nc2ccnn2-c2ccccc2)cc1)c1cc2ccccc2oc1=O` ) is 184 µM

====

target or test system: Aromatase (Homo sapiens)
Sequence (P11511 whole entry): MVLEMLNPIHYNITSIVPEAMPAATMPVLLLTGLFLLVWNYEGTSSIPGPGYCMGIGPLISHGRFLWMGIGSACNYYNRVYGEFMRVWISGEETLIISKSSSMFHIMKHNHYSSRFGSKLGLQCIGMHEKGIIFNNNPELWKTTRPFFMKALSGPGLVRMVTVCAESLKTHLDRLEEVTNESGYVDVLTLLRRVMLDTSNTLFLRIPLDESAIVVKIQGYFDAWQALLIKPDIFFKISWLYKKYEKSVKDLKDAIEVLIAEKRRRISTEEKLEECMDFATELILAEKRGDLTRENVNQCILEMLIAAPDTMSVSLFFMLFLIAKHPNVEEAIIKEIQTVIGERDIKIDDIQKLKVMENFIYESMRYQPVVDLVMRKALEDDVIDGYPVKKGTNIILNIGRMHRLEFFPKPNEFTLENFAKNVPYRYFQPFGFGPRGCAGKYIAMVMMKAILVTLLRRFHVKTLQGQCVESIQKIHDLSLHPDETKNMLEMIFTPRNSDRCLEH
experiment: Inhibition of aromatase activity in human T47D cells at 100 uL after 24 hrs
Assay type: cell-based
Design: concentration or dose not given beside the values
recorded endpoint: inhibition (INH) (%)
Just the number in %, nothing appended.

smiles_string=COc1ncnc(NS(=O)(=O)c2ccc(N/C=C\C(=O)c3cc4ccccc4oc3=O)cc2)c1OC recorded_endpoint="inhibition (INH)" recorded_measurement=69
smiles_string=N=C(N)NS(=O)(=O)c1ccc(N/C=C\C(=O)c2cc3ccccc3oc2=O)cc1 recorded_endpoint="inhibition (INH)" recorded_measurement=30

# inhibition (INH) (molecule: `O=C(/C=C\Nc1ccc(S(=O)(=O)Nc2ccccn2)cc1)c1cc2ccccc2oc1=O` ) is 65

# inhibition (INH) (molecule: `COc1cc(NS(=O)(=O)c2ccc(N/C=C\C(=O)c3cc4ccccc4oc3=O)cc2)nc(OC)n1` ) is 44

# inhibition (INH) (molecule: `Cc1cc(C)nc(NS(=O)(=O)c2ccc(N/C=C\C(=O)c3cc4ccccc4oc3=O)cc2)n1` ) is 30

# inhibition (INH) (molecule: `Cc1noc(NS(=O)(=O)c2ccc(N/C=C\C(=O)c3cc4ccccc4oc3=O)cc2)c1C` ) is 20

====

target or test system: Aromatase (Homo sapiens, UniProt P11511)
Sequence (P11511 whole entry): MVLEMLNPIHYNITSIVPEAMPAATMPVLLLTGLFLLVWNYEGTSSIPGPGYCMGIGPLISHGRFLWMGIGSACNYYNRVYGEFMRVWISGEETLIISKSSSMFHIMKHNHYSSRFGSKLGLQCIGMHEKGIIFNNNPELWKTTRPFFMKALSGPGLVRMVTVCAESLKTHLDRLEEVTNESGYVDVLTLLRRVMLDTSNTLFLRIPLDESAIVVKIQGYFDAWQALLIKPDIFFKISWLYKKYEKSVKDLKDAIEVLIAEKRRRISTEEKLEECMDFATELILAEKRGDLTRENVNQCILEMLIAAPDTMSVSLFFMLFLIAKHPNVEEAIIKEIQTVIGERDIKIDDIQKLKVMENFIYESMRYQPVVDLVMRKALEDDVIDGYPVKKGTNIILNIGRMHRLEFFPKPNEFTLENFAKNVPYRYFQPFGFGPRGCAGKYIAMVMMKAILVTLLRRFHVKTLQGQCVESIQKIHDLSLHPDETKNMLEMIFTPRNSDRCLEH
experiment: Inhibition of aromatase activity in human T47D cells after 24 hrs
// values below are reported IC50
Just the number in µM, nothing appended.

Consider the worked cases shown below.
smiles_string=COc1ncnc(NS(=O)(=O)c2ccc(N/C=C\C(=O)c3cc4ccccc4oc3=O)cc2)c1OC recorded_measurement=4.66
smiles_string=O=C(/C=C\Nc1ccc(S(=O)(=O)Nc2ccccn2)cc1)c1cc2ccccc2oc1=O recorded_measurement=12.5
smiles_string=COc1cnc(NS(=O)(=O)c2ccc(N/C=C\C(=O)c3cc4ccccc4oc3=O)cc2)nc1 recorded_measurement=6.07
smiles_string=Cc1ccnc(NS(=O)(=O)c2ccc(N/C=C\C(=O)c3cc4ccccc4oc3=O)cc2)n1 recorded_measurement=9.52

# IC50 (compound: `O=C(/C=C\Nc1ccc(S(=O)(=O)Nc2ccnn2-c2ccccc2)cc1)c1cc2ccccc2oc1=O` ) is 5.09

====

target or test system: Aromatase (Homo sapiens, UniProt P11511)
Sequence (P11511 whole entry): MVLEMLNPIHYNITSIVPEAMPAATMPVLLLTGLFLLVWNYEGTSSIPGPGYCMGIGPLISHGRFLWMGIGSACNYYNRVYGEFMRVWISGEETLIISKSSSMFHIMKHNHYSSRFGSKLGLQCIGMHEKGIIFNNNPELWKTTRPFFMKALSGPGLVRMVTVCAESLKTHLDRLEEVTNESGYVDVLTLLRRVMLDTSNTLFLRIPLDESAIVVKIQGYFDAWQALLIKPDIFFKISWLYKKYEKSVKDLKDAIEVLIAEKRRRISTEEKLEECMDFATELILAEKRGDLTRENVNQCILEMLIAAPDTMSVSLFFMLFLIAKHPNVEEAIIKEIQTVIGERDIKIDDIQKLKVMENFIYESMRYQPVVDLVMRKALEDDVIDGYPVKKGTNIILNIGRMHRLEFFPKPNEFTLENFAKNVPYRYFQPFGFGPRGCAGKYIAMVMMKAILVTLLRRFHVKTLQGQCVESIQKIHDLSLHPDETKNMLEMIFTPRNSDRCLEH
experiment: Inhibition of aromatase activity in human T47D cells at 100 uL after 24 hrs
Format: cell-based
Parameters: concentration or dose not given beside the values
// values below are reported inhibition (INH)
Units required after the number.

Consider the worked cases shown below.
smiles_string=COc1cnc(NS(=O)(=O)c2ccc(N/C=C\C(=O)c3cc4ccccc4oc3=O)cc2)nc1 target_or_test_system="Aromatase (Homo sapiens, UniProt P11511)" recorded_measurement=81%
smiles_string=Cc1ccnc(NS(=O)(=O)c2ccc(N/C=C\C(=O)c3cc4ccccc4oc3=O)cc2)n1 target_or_test_system="Aromatase (Homo sapiens, UniProt P11511)" recorded_measurement=67%
smiles_string=O=C(/C=C\Nc1ccc(S(=O)(=O)Nc2ccnn2-c2ccccc2)cc1)c1cc2ccccc2oc1=O target_or_test_system="Aromatase (Homo sapiens, UniProt P11511)" recorded_measurement=70%
smiles_string=Cc1cc(NS(=O)(=O)c2ccc(N/C=C\C(=O)c3cc4ccccc4oc3=O)cc2)on1 target_or_test_system="Aromatase (Homo sapiens, UniProt P11511)" recorded_measurement=28%

# inhibition (INH) (compound: `O=C(/C=C\Nc1ccc(S(=O)(=O)Nc2ncccn2)cc1)c1cc2ccccc2oc1=O` ) is 41%
